B1: PSD2 (parent)
chain: PLMGETQERERVLTHFSRRYCQCN

Variants of: B1
test.protocol: protein stability index of a GFP-peptide fusion (GPS, HEK-293T) (PSI 1-6); higher = more stable;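 also: lentivirally expressed fusions sorted by FACS into six bins by GFP to DsRed ratio, PSI derived from sequencing read proportions per bin multiplied by bin number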
details: c terminus: a fixed tail appended
Label rule, in plain words: protein stability index of 3 and up is 1, under 3 is 0.

PLMGETQERERVLTHFSARYCQCN
1
PLMGETMERERVLTHFSRRYCQCN
0
PKMGETQERERVLTHFSRRYCQCN
0
LLMGETQERERVLTHFSRRYCQCN
0
PLMGETQERERVLTHFSFRYCQCN
0

Enquiry: Test whether the variant PLMPETQERERVLTHFSRRYCQCN records protein stability index of 3 or higher.
Return: 1

Enquiry: Test whether the variant PLMGETQERERVLAHFSRRYCQCN records protein stability index of 3 or higher.
Return: 0

Enquiry: Test whether the variant PLMGETQERERVLTHFCRRYCQCN records protein stability index of 3 or higher.
Return: 1

Enquiry: Test whether the variant PLMGETGERERVLTHFSRRYCQCN records protein stability index of 3 or higher.
Return: 0

Attribution: the supplement of paper PMC10567573
